From: the supplement of paper PMC7380943

# System: CLZ3 (HCA2 human fibroblast dual HR-NHEJ reporter)
# experiment_notes: NHEJ repair efficiency (GFP+ cells) relative to control (log10 fold); higher = more non-homologous end joining
# applied_conditions: 5 µM; doxycycline 0.5 ug/mL
readout_label: NHEJ repair efficiency (log10)

O=C1C[C@@H](c2ccccc2)Oc2cc(O)cc(O)c21; 0.123
C[C@@H](CC[C@@]1(O)O[C@H]2C[C@H]3[C@@H]4CC[C@@H]5C[C@@H](O[C@@H]6O[C@H](CO)[C@H](O)[C@H](O)[C@H]6O[C@@H]6O[C@H](CO)[C@@H](O)[C@H](O)[C@H]6O)CC[C@]5(C)[C@H]4CC[C@]3(C)[C@H]2[C@@H]1C)CO[C@@H]1O[C@H](CO)[C@@H](O)[C@H](O)[C@H]1O; 0.192
Oc1ccc2c(c1)OCO2; 0.111
CC(CC(=O)C[C@@H](C)[C@H]1CC(=O)[C@@]2(C)C3=C(C(=O)C[C@]12C)[C@@]1(C)CC[C@H](O)C(C)(C)[C@@H]1C[C@@H]3O)C(=O)O (some centres undefined); 0.0835

* * *

# Tested on: CLZ3 (HCA2 human fibroblast dual HR-NHEJ reporter)
# experiment_notes: NHEJ repair efficiency (GFP+ cells) relative to control (log10 fold); higher = more non-homologous end joining
# applied_conditions: 5 µM; doxycycline 0.5 ug/mL
Each entry below carries its recorded NHEJ repair efficiency (log10).
readout_label: NHEJ repair efficiency (log10)

CC(=O)[C@H]1CC[C@H]2[C@@H]3CCC4=CC(=O)CC[C@]4(C)[C@H]3CC[C@]12C; 0.0637
CC(CC(=O)C[C@@H](C)[C@H]1CC(=O)[C@@]2(C)C3=C(C(=O)C[C@]12C)[C@@]1(C)CCC(=O)C(C)(C)[C@@H]1C[C@@H]3O)C(=O)O (some centres not stated); 0.113
CC(=O)C1=C(O)C=C2Oc3c(C(C)=O)c(O)c(C)c(O)c3C2(C)C1=O (stereo in doubt); 0.00929
CC(C)[C@@H]1[C@H]2OC(=O)[C@@H]1[C@@H]1CC[C@@H]3CN(C)[C@H]2[C@@]31C; 0.165
c1cc2c(cc1O[C@H]1OC[C@H]3[C@@H]1CO[C@@H]3c1ccc3c(c1)OCO3)OCO2; 0.101
Cn1c(=O)c2nc[nH]c2n(C)c1=O; 0.0481
Cc1cc(=O)c2c(O)c3c(cc2o1)OC(C)(C)[C@@H](O[C@@H]1O[C@H](CO)[C@@H](O)[C@H](O)[C@H]1O)C3; -0.132

* * *

# System: CLZ3 (HCA2 human fibroblast dual HR-NHEJ reporter)
# experiment_notes: NHEJ repair efficiency (GFP+ cells) relative to control (log10 fold); higher = more non-homologous end joining
# applied_conditions: 5 µM; doxycycline 0.5 ug/mL
Classes based on NHEJ repair efficiency (log10): lower level: < -0.07; middle level: ≥ -0.07 and < 0.04; upper level: ≥ 0.04

CC12CCC(CC1)C(C)(C)O2; upper level
C[C@H]1[C@H](C)CC[C@]2(C(=O)O)CC[C@]3(C)C(=CC[C@@H]4[C@@]5(C)CC[C@H](O)C(C)(C)[C@@H]5CC[C@]43C)[C@H]12; upper level
O=c1c(O[C@@H]2O[C@H](CO)[C@@H](O)[C@H](O)[C@H]2O)c(-c2ccc(O)cc2)oc2cc(O)cc(O)c12; middle level
COc1c2c(cc3c1-c1c(cc4c(c1OC)OCO4)C[C@H](C)[C@H](C)C3)OCO2; lower level
C[C@@H]1O[C@@H](OC[C@H]2O[C@@H](Oc3cc(O)c4c(=O)cc(-c5ccc(O)cc5)oc4c3)[C@H](O[C@@H]3O[C@@H](C)[C@H](O)[C@@H](O)[C@H]3O)[C@@H](O)[C@@H]2O)[C@H](O)[C@H](O)[C@H]1O; upper level
CC(C)(O[C@@H]1O[C@H](CO)[C@@H](O)[C@H](O)[C@H]1O)[C@H]1Cc2cc3ccc(=O)oc3cc2O1; lower level
CCCOC(=O)c1cc(O)c(O)c(O)c1 [Propyl gallate]; middle level
COc1cc(O)c2c(=O)c(-c3ccc(O)cc3)coc2c1; lower level
O=C(O)c1cc(O)c2c(c1)C(C1c3cc(CO)cc(O)c3C(=O)c3c(OC4OC(CO)C(O)C(O)C4O)cccc31)c1cccc(OC3OC(CO)C(O)C(O)C3O)c1C2=O (stereo unspecified) [Sennoside D]; upper level
C[N+](C)(C)CC(=O)O; lower level
CC(C)=CCC12Oc3cc(O)ccc3C1(O)Oc1cc(O)c([C@H]3C=C(C)C[C@@H](c4ccc(O)cc4O)[C@@H]3C(=O)c3ccc(O)cc3O)c(O)c1C2=O (stereo partly specified); middle level
COc1cc(CNC(=O)CCCCCCC(C)C)ccc1O [Dihydrocapsaicin]; lower level
COc1cc2ccc(=O)oc2c(O)c1O; upper level
COc1cc(O)cc(O)c1C(=O)/C=C/c1ccccc1; upper level
CC(=O)OC1CC23CC(C)(O)C(CCC2C(C)(O)C2C4OC4C(C)(C)C12O)C3O (stereo unspecified); middle level
C[C@@H]1CC[C@@]2(OC1)O[C@H]1C[C@H]3[C@@H]4CC=C5C[C@@H](O)C[C@@H](O)[C@]5(C)[C@H]4CC[C@]3(C)[C@H]1[C@@H]2C; middle level
C[C@H](CC[C@@]1(O)O[C@H]2C[C@H]3[C@@H]4CC=C5C[C@@H](O[C@@H]6O[C@H](CO)[C@@H](O[C@@H]7O[C@@H](C)[C@H](O)[C@@H](O)[C@H]7O)[C@H](O)[C@H]6O[C@@H]6O[C@@H](C)[C@H](O)[C@@H](O)[C@H]6O)CC[C@]5(C)[C@H]4CC[C@]3(C)[C@H]2[C@@H]1C)CO[C@@H]1O[C@H](CO)[C@@H](O)[C@H](O)[C@H]1O; middle level
COc1c(O)cc2occ(-c3ccc(O)cc3)c(=O)c2c1O; middle level
CC(CC(=O)C[C@@H](C)[C@H]1CC(=O)[C@@]2(C)C3=C(C(=O)[C@@H](O)[C@]12C)[C@@]1(C)CC[C@H](O)C(C)(C)[C@@H]1C[C@@H]3O)C(=O)O (stereo partly specified); upper level
COc1ccc(C[C@H]2COC(=O)[C@@H]2Cc2ccc(O[C@@H]3O[C@H](CO)[C@@H](O)[C@H](O)[C@H]3O)c(OC)c2)cc1OC; lower level
O=C(O)[C@H]1O[C@@H](Oc2cc3oc(-c4ccccc4)cc(=O)c3c(O)c2O)[C@H](O)[C@@H](O)[C@@H]1O; lower level
NCCCC(=O)O [γ-Aminobutyric Acid]; lower level
O=c1cc(-c2ccc(O)cc2)oc2cc(O[C@@H]3O[C@H](CO)[C@@H](O)[C@H](O)[C@H]3O[C@@H]3OC[C@](O)(CO)[C@H]3O)cc(O)c12; upper level
C[C@H](CCC(=O)O)[C@H]1CC[C@H]2[C@@H]3[C@H](O)C[C@@H]4C[C@H](O)CC[C@]4(C)[C@H]3C[C@H](O)[C@]12C; middle level

* * *

# System: CLZ3 (HCA2 human fibroblast dual HR-NHEJ reporter)
# experiment_notes: NHEJ repair efficiency (GFP+ cells) relative to control (log10 fold); higher = more non-homologous end joining
# applied_conditions: 5 µM; doxycycline 0.5 ug/mL
Label y when NHEJ repair efficiency (log10) is at or above 0.01; anything below gets n.

O=c1c(O[C@@H]2O[C@H](CO)[C@H](O)[C@H](O)[C@H]2O)c(-c2ccc(O)c(O)c2)oc2cc(O)cc(O)c12 [Hyperoside]; y
O=C(/C=C/c1ccc(O)c2c1[C@H](C(=O)O)[C@@H](c1ccc(O)c(O)c1)O2)O[C@H](Cc1ccc(O)c(O)c1)C(=O)O [Lithospermic acid]; y
OC[C@H]1O[C@@H](Oc2ccc(O)cc2)[C@H](O)[C@@H](O)[C@@H]1O [Arbutin]; n
O=C1C[C@@H](c2ccc(O)cc2)Oc2cc(O)ccc21 [Liquiritigenin]; y
COc1cc(-c2oc3cc(O)cc(O)c3c(=O)c2O[C@@H]2O[C@H](CO[C@H]3O[C@H](C)[C@@H](O)[C@H](O)[C@@H]3O)[C@@H](O)[C@H](O)[C@H]2O)ccc1O [Narcissoside; Isorhamnetin-3-O-β-D-rutinoside]; y
C[C@H]1O[C@H](OC[C@H]2O[C@@H](Oc3c(-c4ccc(O)cc4)oc4cc(O)cc(O)c4c3=O)[C@H](O)[C@@H](O)[C@@H]2O)[C@@H](O)[C@@H](O)[C@@H]1O [Kaempferol-3-O-Rutinoside]; y

* * *

# Tested on: CLZ3 (HCA2 human fibroblast dual HR-NHEJ reporter)
# experiment_notes: HR repair efficiency (tdTomato+ cells) relative to control (log10 fold); higher = more homologous recombination
# applied_conditions: 5 µM; doxycycline 0.5 ug/mL
readout_label: HR repair efficiency (log10)

COc1cc([C@H]2OC[C@H]3[C@@H]2CO[C@@H]3c2ccc(O[C@@H]3O[C@H](CO)[C@@H](O)[C@H](O)[C@H]3O)c(OC)c2)ccc1O[C@@H]1O[C@H](CO)[C@@H](O)[C@H](O)[C@H]1O [PinoresinolDiglucoside]; -0.138
COc1ccc2[nH]cc(CCNC(C)=O)c2c1 [Melatonin]; 0.227
OCc1ccccc1O[C@@H]1O[C@H](CO)[C@@H](O)[C@H](O)[C@H]1O [Salicoside]; 0.251
C=CCc1ccc(O)c(-c2ccc(O)c(CC=C)c2)c1 [Honokiol]; 0.163
